Hello, the source for this data is ChEMBL document CHEMBL1201862, in case you need it.

# GI50 listing for each entry below
Tested on: SN12C
Assay: NCI tumour cell line growth inhibition, 48 h
Calls of active or inactive are those of the source. No stated cut-off is given here; in the data, active = GI50 up to about 1.1 µM and inactive = higher.
MEASUREMENT_NAME: GI50

>>> test_result("O=C(O)C(NCc1ccccc1)C(NCc1ccccc1)C(=O)O (stereo not given)")
"> 100 µM (inactive)"
>>> test_result("Cc1ccc(S(=O)(=O)n2cnc(CC(NC(=O)C3CCC(=O)N3C(=O)OCc3ccccc3)C(=O)N3CCCC3C(=O)NN)c2)cc1 (stereo not given)")
"> 100 µM (inactive)"
>>> test_result("O=C(O)c1c([N+](=O)[O-])cc(C(F)(F)F)cc1[N+](=O)[O-]")
"> 100 µM (inactive)"
>>> test_result("O=C(O/N=c1/ccc(=O)/c(=N\\OC(=O)c2ccccc2)c1=O)c1ccccc1")
"> 100 µM (inactive)"
>>> test_result("C=C1C(=O)O[C@H]2C/C(C)=C/CC[C@]3(C)CCC[C@](C)(CC[C@@H]12)O3")
"12.7 µM (inactive)"
